Origin of values: patent US20250171420A1

Molecular target: CK1α (Homo sapiens, UniProt P48729)
Construct: HEK293 clonal lines with CRISPR KI HiBiT tag on CSNK1A1
Sequence (P48729 whole entry): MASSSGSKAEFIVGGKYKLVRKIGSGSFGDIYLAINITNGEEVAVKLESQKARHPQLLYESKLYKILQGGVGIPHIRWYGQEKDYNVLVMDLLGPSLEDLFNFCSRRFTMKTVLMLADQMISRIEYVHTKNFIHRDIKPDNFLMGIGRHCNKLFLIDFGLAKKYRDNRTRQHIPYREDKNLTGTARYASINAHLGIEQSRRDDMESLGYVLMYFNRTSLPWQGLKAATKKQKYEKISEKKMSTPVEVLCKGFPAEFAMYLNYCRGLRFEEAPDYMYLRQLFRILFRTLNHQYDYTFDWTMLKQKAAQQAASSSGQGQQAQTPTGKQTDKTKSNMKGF
Sequence (Q96SW2 whole entry, further chain): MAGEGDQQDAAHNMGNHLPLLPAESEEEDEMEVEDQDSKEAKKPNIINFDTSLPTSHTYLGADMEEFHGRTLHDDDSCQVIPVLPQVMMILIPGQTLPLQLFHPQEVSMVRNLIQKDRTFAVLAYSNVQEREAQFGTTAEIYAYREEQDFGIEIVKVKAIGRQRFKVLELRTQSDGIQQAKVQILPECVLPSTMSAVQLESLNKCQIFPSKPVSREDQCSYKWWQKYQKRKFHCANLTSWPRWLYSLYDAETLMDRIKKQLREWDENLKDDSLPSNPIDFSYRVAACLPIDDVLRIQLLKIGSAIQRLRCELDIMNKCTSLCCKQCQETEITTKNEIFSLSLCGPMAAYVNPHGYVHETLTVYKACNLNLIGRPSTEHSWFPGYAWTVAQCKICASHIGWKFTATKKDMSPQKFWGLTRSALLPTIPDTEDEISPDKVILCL
Sequence (Q16531 2-1140 partner limits assumed): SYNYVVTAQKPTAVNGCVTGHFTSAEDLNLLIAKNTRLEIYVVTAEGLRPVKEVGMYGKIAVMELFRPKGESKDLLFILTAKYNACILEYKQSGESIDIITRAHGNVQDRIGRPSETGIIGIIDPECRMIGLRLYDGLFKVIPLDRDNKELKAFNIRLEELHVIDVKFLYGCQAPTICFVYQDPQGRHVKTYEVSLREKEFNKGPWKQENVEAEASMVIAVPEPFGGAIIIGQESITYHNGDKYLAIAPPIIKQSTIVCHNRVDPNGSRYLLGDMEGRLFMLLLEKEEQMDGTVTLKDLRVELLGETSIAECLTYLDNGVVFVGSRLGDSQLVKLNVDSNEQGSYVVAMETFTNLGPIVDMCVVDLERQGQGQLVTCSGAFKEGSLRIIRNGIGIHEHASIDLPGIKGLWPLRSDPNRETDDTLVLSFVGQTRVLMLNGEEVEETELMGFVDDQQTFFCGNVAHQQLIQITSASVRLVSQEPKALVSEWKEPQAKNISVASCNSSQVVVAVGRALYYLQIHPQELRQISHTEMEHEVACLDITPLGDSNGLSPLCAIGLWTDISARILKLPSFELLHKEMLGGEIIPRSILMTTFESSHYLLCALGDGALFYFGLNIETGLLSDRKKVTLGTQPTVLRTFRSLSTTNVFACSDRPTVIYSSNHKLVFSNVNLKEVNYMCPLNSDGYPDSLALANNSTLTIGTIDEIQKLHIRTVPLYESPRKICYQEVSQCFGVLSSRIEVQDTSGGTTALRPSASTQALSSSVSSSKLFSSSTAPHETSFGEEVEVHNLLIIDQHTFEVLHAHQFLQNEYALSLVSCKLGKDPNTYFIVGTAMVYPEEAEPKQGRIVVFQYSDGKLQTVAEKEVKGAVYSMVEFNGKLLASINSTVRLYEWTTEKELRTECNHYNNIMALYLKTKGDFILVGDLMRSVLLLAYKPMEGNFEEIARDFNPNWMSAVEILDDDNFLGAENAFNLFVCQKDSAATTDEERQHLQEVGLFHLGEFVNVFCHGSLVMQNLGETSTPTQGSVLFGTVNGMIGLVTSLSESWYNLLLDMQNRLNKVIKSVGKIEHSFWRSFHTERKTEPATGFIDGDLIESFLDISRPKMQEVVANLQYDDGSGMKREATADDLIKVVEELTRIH
Test: CK1α NanoBit Assay (HiBiT-tagged CSNK1A1, HEK293 clonal lines)
Format: cell-based
Details: HEK293 HiBiT-CSNK1A1/LgBiT cells, 24 h incubation
Some compounds, each annotated with its measured DC50.

Past entries and their recorded results:
O=C1CCC(N2Cc3cc(NC(=O)N4c5cccc(F)c5C[C@H]4COC(F)F)ccc3C2=O)C(=O)N1 (stereo partly shown); < 0.1 µM
C[C@H]1c2ccccc2CN1C(=O)Nc1ccc2c(c1)CN(C1CCC(=O)NC1=O)C2=O (stereo partly shown); < 0.1 µM
O=C1CCC(N2Cc3cc(NC(=O)N4CCc5ccc(F)cc54)ccc3C2=O)C(=O)N1 (stereo not shown); < 0.1 µM
C[C@@H]1c2ccccc2CN1C(=O)Nc1ccc2c(c1)CN(C1CCC(=O)NC1=O)C2=O (stereo partly shown); < 0.1 µM
CC1Cc2ccccc2C(C)N1C(=O)Nc1ccc2c(c1)CN(C1CCC(=O)NC1=O)C2=O (stereo not shown); < 0.1 µM
CC1Cc2cc(C(F)(F)F)ncc2N1C(=O)Nc1ccc2c(c1)CN(C1CCC(=O)NC1=O)C2=O (stereo not shown); < 0.1 µM
O=C1CCC(N2Cc3cc(NC(=O)N4CCCC(O)C4)ccc3C2=O)C(=O)N1 (stereo not shown); > 1 µM
O=C1CCC(N2Cc3cc(NC(=O)N4CCCc5c4cccc5C(F)(F)F)ccc3C2=O)C(=O)N1 (stereo not shown); 0.1 to 1 µM

Check the records and state DC50 for C[C@@H]1Cc2c(F)cccc2N1C(=O)Nc1ccc2c(c1)CN(C1CCC(=O)NC1=O)C2=O (stereo partly shown)
< 0.1 µM

Check the records and state DC50 for COC[C@H]1Cc2cc(C(F)(F)F)ncc2N1C(=O)Nc1ccc2c(c1)CN(C1CCC(=O)NC1=O)C2=O (stereo partly shown)
< 0.1 µM

###

Target: CRBN/DDB1 (Homo sapiens, UniProt Q96SW2)
Sequence (Q96SW2 whole entry, species assumed): as the sequence (Q96SW2 whole entry, further chain) above
Sequence (Q16531 whole entry partner, species assumed): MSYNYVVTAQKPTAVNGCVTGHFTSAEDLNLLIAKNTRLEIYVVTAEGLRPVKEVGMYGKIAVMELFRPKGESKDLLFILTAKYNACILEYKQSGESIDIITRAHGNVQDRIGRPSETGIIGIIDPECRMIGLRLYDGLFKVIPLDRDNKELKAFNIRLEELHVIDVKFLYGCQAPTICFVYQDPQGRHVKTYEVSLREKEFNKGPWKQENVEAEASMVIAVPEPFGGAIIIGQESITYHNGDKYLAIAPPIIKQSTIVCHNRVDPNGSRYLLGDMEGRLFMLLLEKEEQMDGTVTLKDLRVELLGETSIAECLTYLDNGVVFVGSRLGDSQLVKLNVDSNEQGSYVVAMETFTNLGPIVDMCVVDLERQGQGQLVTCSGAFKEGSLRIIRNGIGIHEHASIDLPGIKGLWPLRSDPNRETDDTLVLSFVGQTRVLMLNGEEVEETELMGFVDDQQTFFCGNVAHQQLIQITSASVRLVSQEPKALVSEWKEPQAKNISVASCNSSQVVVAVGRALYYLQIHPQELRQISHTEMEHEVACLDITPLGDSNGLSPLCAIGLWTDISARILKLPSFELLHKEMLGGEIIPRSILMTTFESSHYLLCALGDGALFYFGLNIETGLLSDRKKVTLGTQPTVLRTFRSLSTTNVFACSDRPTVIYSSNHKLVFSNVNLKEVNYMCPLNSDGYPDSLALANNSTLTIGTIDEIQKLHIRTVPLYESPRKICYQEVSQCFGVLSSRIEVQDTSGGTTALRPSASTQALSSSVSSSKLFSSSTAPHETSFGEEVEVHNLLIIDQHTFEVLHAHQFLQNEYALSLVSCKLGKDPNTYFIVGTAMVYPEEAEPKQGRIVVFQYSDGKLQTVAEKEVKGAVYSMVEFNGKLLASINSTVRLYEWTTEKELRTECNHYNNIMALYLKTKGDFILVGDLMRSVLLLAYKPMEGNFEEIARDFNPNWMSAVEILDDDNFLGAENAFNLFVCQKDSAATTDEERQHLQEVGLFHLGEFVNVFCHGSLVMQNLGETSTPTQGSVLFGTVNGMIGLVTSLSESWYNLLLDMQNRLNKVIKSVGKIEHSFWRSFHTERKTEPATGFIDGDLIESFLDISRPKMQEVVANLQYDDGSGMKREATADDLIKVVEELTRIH
Test: HTRF binding assay (displacement of Cy5-thalidomide probe from CRBN/DDB1)
Conditions: CRBN/DDB1 2.5 nM, Cy5-Thalidomide 100 nM, 30 min; geometric mean; read-out: HTRF_Thali_Disp_DR_geo_IC50
pIC50: −log10 of the molar value.
Some compounds, each annotated with its measured pIC50.

Past entries and their recorded results:
CC1c2ccccc2CCN1C(=O)Nc1ccc2c(c1)CN(C1CCC(=O)NC1=O)C2=O (stereo not shown); 6.00 to 7.00
O=C1CCC(N2Cc3cc(NC(=O)N4CC5(CCOCC5)c5ccccc54)ccc3C2=O)C(=O)N1 (stereo not shown); 6.00 to 7.00
O=C1CCC(N2Cc3cc(NC(=O)N4CCc5cc(C6CC6)ccc54)ccc3C2=O)C(=O)N1 (stereo not shown); 6.00 to 7.00
O=C1CCC(N2Cc3cc(NC(=O)N4CC5(CCC5)c5ccccc54)ccc3C2=O)C(=O)N1 (stereo not shown); 6.00 to 7.00
COC[C@H]1CN(C(=O)Nc2ccc3c(c2)CN(C2CCC(=O)NC2=O)C3=O)c2ccccc21 (stereo partly shown); 6.00 to 7.00
O=C1CCC(N2Cc3cc(NC(=O)N4C[C@H](C5CC5)C[C@@H]4C4CC4)ccc3C2=O)C(=O)N1 (stereo partly shown); 6.00 to 7.00

Here is another compound to look at.
Check the records and state pIC50 for N#Cc1ccc2c(c1)N(C(=O)Nc1ccc3c(c1)CN(C1CCC(=O)NC1=O)C3=O)CC2 (stereo not shown)
6.00 to 7.00
